Quick reference: KD (human)/KD (cyno) of the listed items.
- Measurement Target: cynomolgus monkey heterodimeric single-chain CD3εγ extracellular domain (cynomolgus monkey, UniProt Q95LI5 22-117; Q95LI7 23-113)
- Sequence (Q95LI7 other isoform, or with tags, fused parts or gaps): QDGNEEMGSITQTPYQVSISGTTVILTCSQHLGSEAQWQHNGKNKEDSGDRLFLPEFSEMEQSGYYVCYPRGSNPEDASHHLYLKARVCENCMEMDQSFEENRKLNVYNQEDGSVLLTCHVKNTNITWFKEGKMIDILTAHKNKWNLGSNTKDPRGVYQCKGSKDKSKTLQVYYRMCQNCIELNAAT
- Assay Comment: SPR; ratio of the KDs for cyno and human single-chain CD3εγ
No unit in the answer, only the number.

Before answering, review these 2 worked examples.
- Binder: "clone-01 (antibody, V domains shown, Recombinant rabbit IgG; also called purified monoclonal rabbit anti-CD3ε antibody clone-01) VH: QSVEESGGRLVTPGTPLTLTCTVSGFPLSSYAMIWVRQAPGKGLEWIGMILRAGNIYYASWAKGRFTISKTSTTVDLKITSPTTEDTATYFCARRQYNTDGYPIGIGDLWGPGTLVTVSS VL: AQVLTQTASSVSAAVGGTVTISCQSSESVYNNNRLSWFQQKPGQPPKQLIYSASSLASGVPSRFKGSGSGTQFTLTISDLECDDAATYYCQGEFSCSSADCFTFGGGTEVVVKG"
  Obs Value: 3
- Binder: "clone-03 (antibody, V domains shown, Recombinant rabbit IgG; also called Clone 3) VH: QSLEESGGRLVTPGTPLTLTCTVSGFPLNRYAMLWVRQAPGKGLEWIGLITRADKKYYASWAKGRFTISKTSTTVDLEITGPTTEDTATYFCARRHYNTDGYPIAIGDLWGPGTLVTVSS VL: AQVLTQTPSSVSAAVGGTVTISCQSNENIYSNNRLSWFQQKPGQPPNQLIYSASSLASGVPSRFKGSGSGTQFTLTISDLECDDAATYYCQGEFNCNSADCFTFGGGTEVVVKG"
  Obs Value: 13

Next binder, please.
## Task Return KD (human)/KD (cyno) for the following binder: clone-04 (antibody, V domains shown, Recombinant rabbit IgG; also called Clone 4) VH: QSLEESGGRLVKPDETLTLTCTVSGFPLSSYAMGWFRQAPGKGLEWIGMILRSDNTYYASWAKGRFTISKTSTTVDLKITSPTTEDTATYFCARRHYNASGNPIAIGDLWGPGTLVTVSS VL: AQVLTQTPSSVSAAVGGTVTINCQSSQSVYNNNRLSWFQQKPGQPPKLLIYTTSSLASGVPSRFKGSGSGTEFTLTISDLECADAATYYCQGEFSCSRADCFNFGGGTEVVVKG
## Result 36

// data source = patent US20180244777A1
